- experimentSummary: Half-life in Sprague-Dawley rat at 20 mg/kg, po
- Assay type: ADME, organism-based
- particulars: in vivo
measurementLabel: half-life

The reported half-life of the molecule COc1cc(C(=O)NC2CCNCC2)ccc1Nc1nc(Oc2cccc3c2C(=O)CC3)c2cc[nH]c2n1 was 4.08 h

====

- experimentSummary: Metabolic stability in human liver microsomes assessed as intrinsic clearance incubated for 120 mins in presence of NADPH by LC-MS/MS analysis
- Type: ADME, Microsome
- particulars: read-out: CLH
Assign 1 whenever CLint scaled does not fall below 50 mL/min/kg; assign -1 whenever it does.

| smilesInput | answerLabel |
| --- | --- |
| Cc1cc(Nc2nc(Oc3cccc4c3C(=O)CC4)c3cc[nH]c3n2)ccc1OCCN(C)C | -1 |
| COc1cc(N2CCN(C)CC2)ccc1Nc1nc(Oc2cccc3c2C(=O)CC3)c2cc[nH]c2n1 | 1 |
| CN1CCN(C2CCN(c3ccc(Nc4nc(Oc5cccc6c5C(=O)CC6)c5cc[nH]c5n4)cc3)CC2)CC1 | 1 |

[in] State whether the measured CLint scaled reaches 50 mL/min/kg, counting equality as reaching it, for CN1CCN(c2ccc(Nc3nc(Oc4cccc5c4C(=O)CC5)c4cc[nH]c4n3)cc2Cl)CC1
[out] -1

[in] State whether the measured CLint scaled reaches 50 mL/min/kg, counting equality as reaching it, for Cc1ccc(Oc2nc(Nc3ccc(N4CCC(N5CCN(C)CC5)CC4)cc3)nc3[nH]ccc23)c2c1CCC2=O
[out] 1

[in] State whether the measured CLint scaled reaches 50 mL/min/kg, counting equality as reaching it, for COc1cc(N2CCN(C)CC2)ccc1Nc1nc(Oc2ccc(C)c3c2C(=O)CC3)c2cc[nH]c2n1
[out] -1

[in] State whether the measured CLint scaled reaches 50 mL/min/kg, counting equality as reaching it, for COc1cc(C(=O)NC2CCNCC2)ccc1Nc1nc(Oc2cccc3c2C(=O)CC3)c2cc[nH]c2n1
[out] -1
